Attribute: IC50
# Tested on: A549
# assay-comment: Antiproliferative activity against human A549 cells assessed as cell growth inhibition incubated for 48 hrs by MTT assay
# Assay type: functional, cell-based
# condition-parameters: A549, 48 h

- compound: "Cc1sc(Br)c(C(=O)NC(C)C(=O)N2CCCC2)c1-c1ccccc1 (configuration not stated)"
  IC50: "40.1 µM"
- compound: "Cc1sc([Se]c2sc(C)c(-c3cccc(F)c3)c2C(=O)NCC(=O)N2CCCC2)c(C(=O)NCC(=O)N2CCCC2)c1-c1cccc(F)c1"
  IC50: "17.4 µM"
- compound: "Cc1sc(Br)c(C(=O)NC(CO)C(=O)N2CCCC2)c1-c1cccc(Br)c1 (configuration not stated)"
  IC50: "28.8 µM"
- compound: "Cc1sc([Se]c2sc(C)c(-c3cccc(F)c3)c2C(=O)NC(C)C(=O)N2CCCC2)c(C(=O)NC(C)C(=O)N2CCCC2)c1-c1cccc(F)c1 (configuration not stated)"
  IC50: "13.2 µM"
- compound: "Cc1sc(Br)c(C(=O)NCC(=O)N2CCCC2)c1-c1cccc(F)c1"
  IC50: "42.6 µM"
- compound: "Cc1sc([Se]c2sc(C)c(-c3cccc(Cl)c3)c2C(=O)NC(CO)C(=O)N2CCCC2)c(C(=O)NC(CO)C(=O)N2CCCC2)c1-c1cccc(Cl)c1 (configuration not stated)"
  IC50: "15.7 µM"
- compound: "Cc1sc([Se]c2sc(C)c(-c3cccc(Br)c3)c2C(=O)NC(CO)C(=O)N2CCCC2)c(C(=O)NC(CO)C(=O)N2CCCC2)c1-c1cccc(Br)c1 (configuration not stated)"
  IC50: "7.86 µM"

====

# Tested on: SK-MEL-28
# assay-comment: Antiproliferative activity against human SK-MEL-28 cells assessed as cell growth inhibition at 20 uM incubated for 48 hrs by MTT assay
# Format: functional
# inhibition at 20 µM annotations

- compound: "Cc1sc([Se]c2sc(C)c(-c3cccc(F)c3)c2C(=O)NCC(=O)N2CCCC2)c(C(=O)NCC(=O)N2CCCC2)c1-c1cccc(F)c1"
  target-or-system: "SK-MEL-28"
  qualifier-symbol: "="
  inhibition at 20 µM [%]: 70
- compound: "Cc1sc([Se]c2sc(C)c(-c3cccc(F)c3)c2C(=O)NC(C(=O)N2CCCC2)C(C)C)c(C(=O)NC(C(=O)N2CCCC2)C(C)C)c1-c1cccc(F)c1 (stereo unspecified)"
  target-or-system: "SK-MEL-28"
  qualifier-symbol: "="
  inhibition at 20 µM [%]: 36
- compound: "Cc1sc([Se]c2sc(C)c(-c3cccc(Br)c3)c2C(=O)NC(CO)C(=O)N2CCCC2)c(C(=O)NC(CO)C(=O)N2CCCC2)c1-c1cccc(Br)c1 (stereo unspecified)"
  target-or-system: "SK-MEL-28"
  qualifier-symbol: "="
  inhibition at 20 µM [%]: 78
- compound: "Cc1sc([Se]c2sc(C)c(-c3cccc(Cl)c3)c2C(=O)NC(C)C(=O)N2CCCC2)c(C(=O)NC(C)C(=O)N2CCCC2)c1-c1cccc(Cl)c1 (stereo unspecified)"
  target-or-system: "SK-MEL-28"
  qualifier-symbol: "="
  inhibition at 20 µM [%]: 13
- compound: "Cc1sc([Se]c2sc(C)c(-c3ccccc3)c2C(=O)NCC(=O)N2CCCC2)c(C(=O)NCC(=O)N2CCCC2)c1-c1ccccc1"
  target-or-system: "SK-MEL-28"
  qualifier-symbol: "<"
  inhibition at 20 µM [%]: 10
- compound: "Cc1sc([Se]c2sc(C)c(-c3cccc(Cl)c3)c2C(=O)NC(C(=O)N2CCCC2)C(C)C)c(C(=O)NC(C(=O)N2CCCC2)C(C)C)c1-c1cccc(Cl)c1 (stereo unspecified)"
  target-or-system: "SK-MEL-28"
  qualifier-symbol: "<"
  inhibition at 20 µM [%]: 10
